- targetOfAssay: Caspase-1 (Homo sapiens)
- Construct: mixing the compounds with the respective active caspases; purchased BioVision K151-100
- method: Caspase-1 inhibitor screening assay (BioVision kit, YVAD-AFC)
- Format: biochemical
- conditionSet: read-out: IC50 Casp1
measuredQuantity: log10 IC50 (log10 of the value in µM)
Short version: log10 scale, IC50, µM.

Query: Param item = CCC(C)[C@H](NC(=O)[C@H](CCC(=O)O)NC(=O)[C@@H](NC(=O)OCc1ccccc1)C(C)C)C(=O)N[C@H](/C=C/S(C)(=O)=O)CC(=O)O (stereo partly shown) ; retrieve measured log10 IC50.
Reply: 0.43

Query: What about CCC(C)[C@H](NC(=O)[C@H](CCC(=O)O)NC(=O)[C@@H](NC(=O)OCc1ccccc1)C(C)C)C(=O)N[C@H](/C=C(\Cl)S(C)(=O)=O)CC(=O)O (stereo partly shown) ?
Reply: 0.59

Query: Would you mind doing CC(C)(C)[C@H](NC(=O)c1ccc2ncccc2n1)C(=O)N1CCCC1C(=O)N[C@H](/C=C/S(C)(=O)=O)CC(=O)O (stereo in doubt) as well?
Reply: -0.06

Query: // next record CC(C)(C)[C@H](NC(=O)c1ccc2ncccc2c1)C(=O)N1CCCC1C(=O)N[C@H](/C=C/S(C)(=O)=O)CC(=O)O (stereo in doubt)
Reply: -0.92

Query: Cool, now CC(C)(C)[C@H](NC(=O)c1ccc2ccccc2n1)C(=O)N1CC[C@@H]1C(=O)N[C@H](/C=C/S(C)(=O)=O)CC(=O)O
Reply: 0.15

Query: Next entry: CC(C)(C)[C@H](NC(=O)c1ccc(N)c(Cl)c1)C(=O)N1CCCC1C(=O)N[C@H](/C=C/S(C)(=O)=O)CC(=O)O (stereo in doubt)
Reply: -1.70

Query: Continue with CC(C)(C)[C@H](NC(=O)[C@H](CC(=O)O)NC(=O)OCc1ccccc1)C(=O)N1CCCC1C(=O)N[C@H](/C=C/S(C)(=O)=O)CC(=O)O (stereo in doubt)
Reply: 0.63

Query: One more compound: CC(C)[C@H](NC(=O)[C@H](Cc1cn(C)c2ccccc12)NC(=O)[C@H](CC(=O)O)NC(=O)OCc1ccccc1)C(=O)N[C@H](/C=C/S(C)(=O)=O)CC(=O)O
Reply: 0.58

====

Entries annotated with measured inhibition at 10 µM
- targetOfAssay: Caspase-3 (Homo sapiens, UniProt P42574)
- Construct: mixing the compounds with the respective active caspases; purchased BioVision K153-100
- Sequence (P42574 29-175 limits assumed): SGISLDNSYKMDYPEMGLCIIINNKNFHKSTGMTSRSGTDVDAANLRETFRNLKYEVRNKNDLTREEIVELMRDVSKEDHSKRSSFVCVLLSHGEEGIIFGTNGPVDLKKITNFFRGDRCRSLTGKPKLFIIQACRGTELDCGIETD
- Sequence (P42574 176-277 limits assumed): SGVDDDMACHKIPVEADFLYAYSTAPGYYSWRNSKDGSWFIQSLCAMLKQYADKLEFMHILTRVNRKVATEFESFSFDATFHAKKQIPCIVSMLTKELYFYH
- method: Caspase-3 inhibitor screening assay (BioVision kit, DEVD-AFC)
- Type: biochemical
- conditionSet: read-out: % Inhibition at 10 uM Casp3
Write the number in % without appending the unit.

Answered examples (4):
1. CC(C)(C)[C@H](NC(=O)c1ccc2ncccc2n1)C(=O)N1CCCC1C(=O)N[C@H](/C=C/S(C)(=O)=O)CC(=O)O (stereo in doubt) [Compound 8]    3
2. CS(=O)(=O)/C=C/[C@H](CC(=O)O)NC(=O)C1CCCN1C(=O)[C@@H](NC(=O)[C@H](CC(=O)O)NC(=O)OCc1ccccc1)C1CC1 (stereo in doubt) [Compound 28]    91
3. CCC(C)[C@H](NC(=O)[C@H](CCC(=O)O)NC(=O)[C@@H](NC(=O)OCc1ccccc1)C(C)C)C(=O)N[C@H](/C=C/S(C)(=O)=O)CC(=O)O (stereo partly drawn) [Compound 38, Z-Val-Glu-Ile-Asp-methyl vinyl sulfone]    63
4. CS(=O)(=O)/C=C/[C@H](CC(=O)O)NC(=O)[C@H]1CCCN1C(=O)[C@@H](NC(=O)[C@H](CC(=O)O)NC(=O)OCc1ccccc1)c1ccccc1 [Compound 30]    68

Now look at this one.
Query: Give inhibition at 10 µM (Caspase-3 (Homo sapiens, UniProt P42574)) of the following molecule: CS(=O)(=O)/C=C/[C@H](CC(=O)O)NC(=O)[C@H]1CCC(=O)N1 [Compound 24]
Reply: 0

====

Some compounds, each annotated with its measured IC50.
- targetOfAssay: Caspase-8 (Homo sapiens)
- Construct: mixing the compounds with the respective active caspases; purchased BioVision K158-100
- Sequence (Q14790 217-374 limits assumed): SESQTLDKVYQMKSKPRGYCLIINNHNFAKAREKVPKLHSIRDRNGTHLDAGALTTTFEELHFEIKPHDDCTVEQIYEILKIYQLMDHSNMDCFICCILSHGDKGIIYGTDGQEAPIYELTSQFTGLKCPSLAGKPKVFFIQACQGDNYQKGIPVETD
- Sequence (Q14790 385-479 limits assumed): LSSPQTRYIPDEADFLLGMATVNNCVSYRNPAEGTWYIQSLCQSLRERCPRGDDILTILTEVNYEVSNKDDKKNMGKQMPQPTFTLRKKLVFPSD
- method: Caspase-8 inhibitor screening assay (BioVision kit, IETD-AFC)
- Format: biochemical
- conditionSet: read-out: IC50 Casp8

In the examples that follow, each entry is paired with its recorded IC50.
1. CC(C)[C@H](NC(=O)[C@H](CCC(=O)O)NC(=O)[C@H](Cc1c[nH]c2ccccc12)NC(=O)OCc1ccccc1)C(=O)N[C@H](/C=C/S(C)(=O)=O)CC(=O)O    5.93 µM
2. CC(C)(C)[C@H](NC(=O)c1ccc2ncccc2n1)C(=O)N1CCCC1C(=O)N[C@H](/C=C/S(C)(=O)=O)CC(=O)O (stereo in doubt)    > 100 µM

Continue with the compound presented below.
Query: Tell me reported IC50 for CCOC(=O)/C=C/[C@H](CC(=O)O)NC(=O)[C@@H](NC(=O)[C@H](CCC(=O)O)NC(=O)[C@@H](NC(=O)OCc1ccccc1)C(C)C)C(C)CC (stereo partly drawn) , tested with Caspase-8 (Homo sapiens).
Reply: 0.19 µM

====

- targetOfAssay: Caspase-1 (Homo sapiens, UniProt P29466)
- Construct: mixing the compounds with the respective active caspases; purchased BioVision K151-100
- Sequence (P29466 120-297 limits assumed): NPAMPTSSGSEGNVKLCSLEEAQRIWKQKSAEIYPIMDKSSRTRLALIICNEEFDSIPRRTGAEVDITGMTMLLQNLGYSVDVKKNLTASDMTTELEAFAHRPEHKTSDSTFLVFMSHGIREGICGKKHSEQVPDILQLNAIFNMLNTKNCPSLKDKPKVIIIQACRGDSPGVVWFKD
- Sequence (P29466 317-404 limits assumed): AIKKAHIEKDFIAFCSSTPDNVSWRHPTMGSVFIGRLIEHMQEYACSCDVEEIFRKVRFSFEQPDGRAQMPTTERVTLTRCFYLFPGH
- method: Caspase-1 inhibitor screening assay (BioVision kit, YVAD-AFC)
- Type: biochemical
- conditionSet: read-out: IC50 Casp1
measuredQuantity: pIC50
// pIC50 here means minus log10 of the molar concentration (mol/L)

Record excerpt, results attached:
1) CCOC(=O)/C(Cl)=C/[C@H](CC(=O)O)NC(=O)[C@H]1CCCN1C(=O)[C@@H](NC(=O)c1ccc(N)c(Cl)c1)C(C)(C)C    6.96
2) CS(=O)(=O)/C=C/[C@H](CC(=O)O)NC(=O)C1CCCN1C(=O)[C@@H](NC(=O)[C@H](CC(=O)O)NC(=O)OCc1ccccc1)C1CC1 (stereo in doubt)    4.97
3) CCOC(=O)/C=C/[C@H](CC(=O)O)NC(=O)[C@H]1CCCN1C(=O)[C@@H](NC(=O)c1ccc(N)c(Cl)c1)C(C)(C)C    8.00

Let us move to another entry and its pIC50.
Query: Would you kindly share the measured pIC50 for CC(C)(C)[C@H](NC(=O)c1ccc2ccccc2n1)C(=O)N1CCC[C@@H]1C(=O)N[C@H](/C=C/S(C)(=O)=O)CC(=O)O ?
Reply: 7.40

====

- targetOfAssay: Caspase-3 (Homo sapiens, UniProt P42574)
- Construct: mixing the compounds with the respective active caspases; purchased BioVision K153-100
- Sequence (P42574 29-175 limits assumed): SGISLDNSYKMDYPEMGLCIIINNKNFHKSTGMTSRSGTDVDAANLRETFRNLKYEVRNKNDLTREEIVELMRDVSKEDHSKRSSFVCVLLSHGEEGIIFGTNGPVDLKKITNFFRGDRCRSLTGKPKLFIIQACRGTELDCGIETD
- Sequence (P42574 176-277 limits assumed): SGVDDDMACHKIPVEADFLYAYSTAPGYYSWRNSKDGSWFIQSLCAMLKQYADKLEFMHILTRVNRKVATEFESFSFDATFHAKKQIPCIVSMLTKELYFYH
- method: Caspase-3 inhibitor screening assay (BioVision kit, DEVD-AFC)
- Format: biochemical
- conditionSet: read-out: IC50 Casp3
Known pIC50 of a selection of compounds
API: returns pIC50 as number; meaning -log10 of concentration in mol/L.

1. CC(C)[C@H](NC(=O)[C@H](CCC(=O)O)NC(=O)[C@H](Cc1c[nH]c2ccccc12)NC(=O)OCc1ccccc1)C(=O)N[C@H](/C=C/S(C)(=O)=O)CC(=O)O [Compound 40, Z-Trp-Glu-Val-Asp-methyl vinyl sulfone]    5.18
2. CC(C)[C@H](NC(=O)[C@@H](NC(=O)[C@H](CC(=O)O)NC(=O)OCc1ccccc1)c1ccccc1)C(=O)N[C@H](/C=C/S(C)(=O)=O)CCC(=O)O [Compound 84, Z-Asp-Phg-Val-Glu methyl vinyl sulfone]    4.82
3. CS(=O)(=O)/C=C/[C@H](CC(=O)O)NC(=O)[C@H]1CCCN1C(=O)[C@@H](NC(=O)[C@H](CC(=O)O)NC(=O)OCc1ccccc1)c1ccccc1 [Compound 30]    5.47
4. CS(=O)(=O)/C=C/[C@H](CC(=O)O)NC(=O)C1CCCN1C(=O)[C@@H](NC(=O)[C@H](CC(=O)O)NC(=O)OCc1ccccc1)C1CC1 (stereo in doubt) [Compound 28]    6.11
5. CCOC(=O)/C(Cl)=C/[C@H](CC(=O)O)NC(=O)[C@H]1CCCN1C(=O)[C@H](NC(=O)[C@H](CC(=O)O)NC(=O)OCc1ccccc1)C(C)(C)C [Compound 57]    5.90
6. CCOC(=O)/C=C/[C@H](CC(=O)O)NC(=O)[C@@H](NC(=O)[C@@H](NC(=O)[C@H](CC(=O)O)NC(=O)OCc1ccccc1)c1ccccc1)C(C)C [Compound 105, Z-Asp-Phg-Val-Asp Ethyl Vinyl Ester]    7.52
7. CCC(C)[C@H](NC(=O)[C@H](CCC(=O)O)NC(=O)[C@@H](NC(=O)OCc1ccccc1)C(C)C)C(=O)N[C@H](/C=C/S(C)(=O)=O)CC(=O)O (stereo partly drawn) [Compound 38, Z-Val-Glu-Ile-Asp-methyl vinyl sulfone]    5.16
8. CC(C)(C)[C@H](NC(=O)[C@H](CC(=O)O)NC(=O)OCc1ccccc1)C(=O)N1CCCC1C(=O)N[C@H](/C=C/S(C)(=O)=O)CC(=O)O (stereo in doubt) [Compound 26, Z-Asp-t-Leu-Pro-Asp-methyl vinyl sulfone]    6.92

Query: Which pIC50 reading was recorded for the compound CCOC(=O)/C=C/[C@H](CC(=O)O)NC(=O)[C@@H](NC(=O)[C@H](CCC(=O)O)NC(=O)[C@@H](NC(=O)OCc1ccccc1)C(C)C)c1ccccc1 [Compound 126, Z-Val-Glu-Phg-Asp-Ethyl Vinyl ester] ?
Reply: 5.56

Query: Can you handle CC(C)(C)[C@@H](NC(=O)[C@H](CC(=O)O)NC(=O)OCc1ccccc1)C(=O)N1CC[C@@H]1C(=O)N[C@H](/C=C/S(C)(=O)=O)CC(=O)O [Compound 32] next?
Reply: 6.55
